Target: MBI_CD19_1; (SAR3419)
Sequence (chain, as listed by the source, chain 1 of 2): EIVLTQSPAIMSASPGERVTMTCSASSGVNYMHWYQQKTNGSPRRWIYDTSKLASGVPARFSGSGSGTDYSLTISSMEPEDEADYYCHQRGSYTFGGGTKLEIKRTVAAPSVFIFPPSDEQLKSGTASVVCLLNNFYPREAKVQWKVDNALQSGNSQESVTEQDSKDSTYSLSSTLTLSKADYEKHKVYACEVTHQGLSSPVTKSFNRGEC
Sequence (chain, as listed by the source, chain 2 of 2): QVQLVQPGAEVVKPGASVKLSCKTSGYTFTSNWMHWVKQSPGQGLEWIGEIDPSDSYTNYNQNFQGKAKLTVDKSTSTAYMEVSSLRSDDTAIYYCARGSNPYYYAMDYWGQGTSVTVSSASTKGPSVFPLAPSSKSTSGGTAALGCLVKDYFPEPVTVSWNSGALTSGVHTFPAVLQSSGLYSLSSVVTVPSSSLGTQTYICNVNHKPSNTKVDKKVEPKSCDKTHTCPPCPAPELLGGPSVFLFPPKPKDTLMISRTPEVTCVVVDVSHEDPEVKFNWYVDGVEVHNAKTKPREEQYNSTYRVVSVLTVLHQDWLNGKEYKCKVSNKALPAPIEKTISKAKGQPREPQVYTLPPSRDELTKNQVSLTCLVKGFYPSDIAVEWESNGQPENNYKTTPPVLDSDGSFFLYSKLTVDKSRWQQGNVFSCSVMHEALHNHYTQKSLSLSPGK
Assay: BLI Octet, antibody on anti-human Fc tip, peptide […]
quantity: Kd

>>> reading("CQFDLSTRRLRC (modifications not checked) [Peptide 22: DM1 conjugated cQFD (cQFD-DM1)]")
"< 1 pM"
